biological target: T1, soluble human FcRn (shFcRn) (human, UniProt P55899 24-297; P61769 21-119); assay: SPR pH 7.4; 3PyridylAla in place of His
T1 construct: Biotinylated for the ELISA, amine-coupled to a CM5 chip for SPR; also called biotinylated shFcRn
T1 sequence (P55899 24-297 limits assumed, chain 1 of 2): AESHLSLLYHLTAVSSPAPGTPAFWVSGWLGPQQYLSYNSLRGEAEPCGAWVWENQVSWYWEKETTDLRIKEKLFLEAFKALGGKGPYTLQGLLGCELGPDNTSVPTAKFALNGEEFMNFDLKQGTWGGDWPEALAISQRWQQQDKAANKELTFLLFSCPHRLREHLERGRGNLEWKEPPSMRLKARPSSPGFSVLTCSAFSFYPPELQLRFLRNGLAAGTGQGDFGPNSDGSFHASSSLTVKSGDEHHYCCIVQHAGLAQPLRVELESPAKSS
T1 sequence (P61769 21-119 limits assumed, chain 2 of 2): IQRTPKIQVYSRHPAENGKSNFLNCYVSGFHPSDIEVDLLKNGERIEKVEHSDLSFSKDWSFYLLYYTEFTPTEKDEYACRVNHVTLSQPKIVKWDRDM
readout-name: Kd

[[record]]
binder = "RFCTGXFGGLYPC (Pen 3; 3PyridylAla 6; Sar 9; NMeL 10; disulfide 3-13; C-terminal amide) [Peptide No. 250]"
data_value = "260 nM"

